Quick reference for composite z-score among some compounds
- protocol: binders of probe aFSTL3 on microarray, primary screen, stem cell growth factor project, biochemical, small-molecule microarray, fluorescence 635/667 (AID 1064);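 note: measures binding of the biotinylated anti-FSTL3 antibody to printed compounds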
- condition_summary: higher = more signal
assay_readout: composite z-score

molecule_smiles: C=CC[C@@H]1C=C[C@H](ON=CC[C@@H]2C=C[C@H](OC(C)=O)[C@@H](COC(C)=O)O2)[C@@H](CO)O1
value: -0.256

molecule_smiles: CO[C@H]1COC(=O)CCC[C@H](C)[C@H](OC)COC(=O)CC=C[C@@H]1C
value: -0.535

molecule_smiles: CC(=O)OC[C@H]1O[C@H](CC=NOC[C@@H](O)[C@H]2O[C@@H]3OC(C)(C)O[C@@H]3[C@H]2O)C=C[C@@H]1OC(C)=O
value: -0.373

molecule_smiles: C[C@H]1CC[C@H]2C(=O)O[C@H](CO)CN2[C@@H]1c1ccc(Br)cc1
value: -0.334

molecule_smiles: CO[C@H]1COC(=O)[C@H](CCSC)NC(=O)CC=C[C@@H](C)[C@H](OC)COC(=O)[C@@H](OCc2ccccc2)C=C[C@@H]1C
value: -0.459

molecule_smiles: CCOC(=O)CCN1C(=O)[C@H]2[C@@H]3C(=CC[C@H]2C1=O)C(=O)[C@H]1O[C@H]1[C@H]3O
value: -0.128

molecule_smiles: C[C@H]1CC[C@@H](C(=O)O)N[C@@H]1c1ccc(C#Cc2ccccc2)cc1
value: -0.214

molecule_smiles: CCCNC(=O)OC[C@H]1O[C@H](CCON=C[C@@H](C)[C@H](OCc2ccccc2)C(C)C)C=C[C@@H]1Oc1ccc(OC)cc1
value: -0.273

###

- protocol: MM1S myeloma cell viability, profiling panel, resazurin fluorescence, basal, 24 h, PK04 Diversity Set (AID 1174);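 note: MM1S multiple myeloma cell line; test concentration not given here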
- condition_summary: higher = more signal, called active from +8 up or from −8 down

molecule: CCOC(=O)[C@H](CC(C)C)NC(=O)CCC1CC(OC(=O)NCCc2ccc(F)cc2)CC2(CCCC(COC(=O)NCCOC)O2)O1 (some centres not stated)
z-score: 0.581
--
molecule: CC(CCN1CCCc2nc(C)c(C)cc21)=NOC[C@@H](O)COCc1ccco1
z-score: 0.107
--
molecule: C#CCCCON=C1[C@H]2CCn3c(=O)n([C@@H](CC)c4ccccc4)c(=O)n3[C@H]2[C@H](O)[C@@H]2O[C@H]12
z-score: -0.813
--
molecule: CO[C@@H]1[C@H](O)CO[C@H]1C=Cc1ccccc1
z-score: 0.841
--
molecule: CC(=O)OC[C@H]1O[C@H](CC=NOC(C)CN2CCCCc3nc(C)c(C)cc32)C=C[C@@H]1OC(C)=O (some centres not stated)
z-score: 0.535
--
molecule: CC(C)CN1CCc2nc(-c3ccccc3)c3c(c2C1)CO[C@@H](C)C3
z-score: 1.21
--
molecule: CON(C)C(=O)c1nnc2c(n1)[nH]c1ccccc12
z-score: 0.322
--
molecule: COc1ccc(COC(=O)NN=C2C[C@@H](O)[C@@H](O)[C@@H]3[C@@H]4C(=O)N(C(C)(C)C)C(=O)[C@@H]4CC[C@@H]23)cc1
z-score: -0.181
--
molecule: CCOC(=O)[C@H](Cc1ccccc1)NC(=O)CCC1CC(OC(=O)NCc2ccc3c(c2)OCO3)CC2(CCCC(COC(=O)NCCOC)O2)O1 (some centres not stated)
z-score: 0.808
--
molecule: CC(CCN1CCCCc2nc(C)c(C)cc21)=NO[C@@H](C)c1cc(-c2c(C)cc(C)cc2C)no1
z-score: 0.862
--
molecule: O=C1[C@H]2CCn3c(=O)n(-c4ccccc4)c(=O)n3[C@H]2[C@H](O)[C@@H]2O[C@H]12
z-score: -0.468
--
molecule: COC(=O)[C@H](C)NC(=O)CCC1CC(OC(=O)NCc2ccc3c(c2)OCO3)CC2(CCCC(COC(=O)NCCC(C)C)O2)O1 (some centres not stated)
z-score: -0.274
--
molecule: COC(=O)[C@H](C)NC(=O)CC=C[C@@H](C)[C@@H]1C=C[C@H](O)[C@@H](CO)O1
z-score: -0.543
--
molecule: CC(C)[C@@H](OCc1ccccc1)[C@H](C)C=NOC[C@@H](O)[C@H]1O[C@@H]2OC(C)(C)O[C@@H]2[C@H]1O
z-score: -0.587
--
molecule: CO[C@@H](C(C)C)[C@@H](C)C1OC(=O)CC1O (some centres not stated)
z-score: -0.766
--
molecule: CSCC[C@@H]1NC(=O)CC=C[C@@H](C)COC(=O)[C@H](C)COC1=O
z-score: 0.745
--
molecule: CC(C)=CCCC(C)=CCON=C1[C@H]2CCn3c(=O)n(-c4ccccc4)c(=O)n3[C@H]2[C@H](O)[C@@H]2O[C@H]12
z-score: -2.7
